Please provide measured pIC50 for the entries that follow.
biological target: recombinant light chain A (rLCA) (Clostridium botulinum, UniProt P0DPI0); test: biochemical
Sequence (P0DPI0 2-448 limits assumed): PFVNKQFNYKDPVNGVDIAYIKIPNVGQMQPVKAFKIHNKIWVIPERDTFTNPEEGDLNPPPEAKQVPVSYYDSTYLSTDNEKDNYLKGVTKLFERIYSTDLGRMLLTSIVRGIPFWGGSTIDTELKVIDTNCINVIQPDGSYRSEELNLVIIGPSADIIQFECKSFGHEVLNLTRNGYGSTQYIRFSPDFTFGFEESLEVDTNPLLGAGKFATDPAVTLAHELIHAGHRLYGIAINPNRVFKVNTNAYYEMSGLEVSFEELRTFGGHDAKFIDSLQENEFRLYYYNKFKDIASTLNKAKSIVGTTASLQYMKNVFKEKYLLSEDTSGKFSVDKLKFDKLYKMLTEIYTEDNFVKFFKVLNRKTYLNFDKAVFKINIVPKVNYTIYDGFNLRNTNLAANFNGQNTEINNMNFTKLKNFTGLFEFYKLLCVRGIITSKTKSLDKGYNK
Give bare numbers, as −log10 of the molar value.

In [3]: df
Out[3]:
                                   compound  reported_property  reported_value
0  O=c1oc2c(O)c(O)cc3c(=O)oc4c(O)c(O)cc1c4c23              pIC50            5.79
1  O=C1c2ccccc2C(=O)c2c(O)c(O)cc(O)c21 [Compound 6, 1,2,4-trihydroxyanthracene-9,10-dione]              pIC50            4.94
2  Cc1cc2c(C(C)C)c(O)c(O)c(C=O)c2c(O)c1-c1c(C)cc2c(C(C)C)c(O)c(O)c(C=O)c2c1O              pIC50            4.94
3  O=c1ccc2cc3c(-c4ccc([N+](=O)[O-])cc4)coc3cc2o1              pIC50            5.00
4         CCCCCCCCCCCC1=C(O)C(=O)C=C(O)C1=O              pIC50            4.87
5  O=C1C=C2CC3(O)COc4c(ccc(O)c4O)C3=C2C=C1O (stereo not shown)              pIC50            6.07

Please examine the following record next.
Given the compound `O=c1c(O)c(-c2ccc(O)c(O)c2)oc2c(O)c(O)cc(O)c12` , what is its reported pIC50?
6.62

----------
I'd appreciate it if you could supply inhibition at 100 µM values for the items below.
target: BoNT/A LC (Clostridium botulinum, UniProt P0DPI0); test: biochemical; assay type: biochemical, C. botulinum; conditions: read-out: % of Inhibition at 100 μM
Sequence (P0DPI0 2-448 limits assumed): as above
Answers are plain numbers, in %.

Before answering, review these 5 worked examples.
>>> df
                                   compound                             system_tested  reported_value
0  O=c1ccc2cc3c(-c4ccc([N+](=O)[O-])cc4)coc3cc2o1 [Compound 1]  BoNT/A LC (Clostridium botulinum, UniProt P0DPI0)             100
1  O=c1oc2c3c4c(cc2c2c1CCC2)CCCN4CCC3 [Compound 9]  BoNT/A LC (Clostridium botulinum, UniProt P0DPI0)            83.3
2  O=C1C=C2CC3(O)COc4c(ccc(O)c4O)C3=C2C=C1O (stereo not drawn) [Compound 3]  BoNT/A LC (Clostridium botulinum, UniProt P0DPI0)            92.7
3  O=c1c(O)c(-c2ccc(O)c(O)c2)oc2c(O)c(O)cc(O)c12 [Compound 10]  BoNT/A LC (Clostridium botulinum, UniProt P0DPI0)             104
4  Cc1cc2c(C(C)C)c(O)c(O)c(C=O)c2c(O)c1-c1c(C)cc2c(C(C)C)c(O)c(O)c(C=O)c2c1O [Compound 4]  BoNT/A LC (Clostridium botulinum, UniProt P0DPI0)             100

Switching to the query record.
Which inhibition at 100 µM reading was recorded for the compound O=C(O)CCCCC1CCSS1 (stereo not drawn) [Compound 7, 5-(1,2-Dithiolan-3-yl)-pentanoic acid] ?
90.5

----------
biological target: BoNT/A LC (Clostridium botulinum); assay: biochemical
reported-property: log10 IC50 (log10 of the value in µM)
Units before log transform: µM; reported quantity: IC50; transform: log10.

Reference set, count: 3
>>> df
                                   compound  reported_property  reported_value
0  Cc1cc2c(C(C)C)c(O)c(O)c(C=O)c2c(O)c1-c1c(C)cc2c(C(C)C)c(O)c(O)c(C=O)c2c1O         log10 IC50            0.50
1  O=c1c(O)c(-c2ccc(O)c(O)c2)oc2c(O)c(O)cc(O)c12         log10 IC50           -0.57
2        O=c1oc2c3c4c(cc2c2c1CCC2)CCCN4CCC3         log10 IC50            0.97

Below are 3 compounds. Give each one its log10 IC50.
1. O=c1oc2c(O)c(O)cc3c(=O)oc4c(O)c(O)cc1c4c23
2. O=C1C=C2CC3(O)COc4c(ccc(O)c4O)C3=C2C=C1O (stereo not shown)
3. CCCCCCCCCCCC1=C(O)C(=O)C=C(O)C1=O

1. -0.19
2. 0.47
3. 0.65

# map each compound to its log10 IC50
1. O=c1ccc2cc3c(-c4ccc([N+](=O)[O-])cc4)coc3cc2o1
2. Cc1c(C(=O)O)c(O)cc2c1C(=O)c1c(O)c([C@@H]3O[C@H](CO)[C@@H](O)[C@H](O)[C@H]3O)c(O)c(O)c1C2=O
3. O=C1c2ccccc2C(=O)c2c(O)c(O)cc(O)c21 [Compound 6, 1,2,4-trihydroxyanthracene-9,10-dione]
4. O=C(O)CCCCC1CCSS1 (stereo not shown)

1. 0.81
2. 0.83
3. 0.65
4. 0.70

----------
Provide the recorded inhibition at 100 µM for the entries that follow.
biological target: BoNT/A LC (Clostridium botulinum); assay: biochemical; format: biochemical, C. botulinum; settings: read-out: % of Inhibition at 100 μM
Numbers only, in %.

Before answering, review these 3 worked examples.
In [3]: df
Out[3]:
                                   compound     reported_property  reported_value
0  O=C1c2ccccc2C(=O)c2c(O)c(O)cc(O)c21 [Compound 6, 1,2,4-trihydroxyanthracene-9,10-dione]  inhibition at 100 µM             100
1  O=c1oc2c(O)c(O)cc3c(=O)oc4c(O)c(O)cc1c4c23  inhibition at 100 µM             101
2         CCCCCCCCCCCC1=C(O)C(=O)C=C(O)C1=O  inhibition at 100 µM             100

Then this compound:
Give the measured inhibition at 100 µM of `Cc1c(C(=O)O)c(O)cc2c1C(=O)c1c(O)c([C@@H]3O[C@H](CO)[C@@H](O)[C@H](O)[C@H]3O)c(O)c(O)c1C2=O` .
85.1

----------
Give measured IC50 for each item. Keep answers brief.
target: recombinant light chain A (rLCA) (Clostridium botulinum, UniProt P0DPI0); assay: biochemical

Previously resolved entries follow.
                                   compound                             system_tested  reported_property  reported_value
0  O=c1oc2c3c4c(cc2c2c1CCC2)CCCN4CCC3 [Compound 9]  recombinant light chain A (rLCA) (Clostridium botulinum, UniProt P0DPI0)               IC50         > 20 µM
1  O=C(O)CCCCC1CCSS1 (stereo not drawn) [Compound 7, 5-(1,2-Dithiolan-3-yl)-pentanoic acid]  recombinant light chain A (rLCA) (Clostridium botulinum, UniProt P0DPI0)               IC50         > 20 µM

Fill blank: measured IC50 of the compound Cc1c(C(=O)O)c(O)cc2c1C(=O)c1c(O)c([C@@H]3O[C@H](CO)[C@@H](O)[C@H](O)[C@H]3O)c(O)c(O)c1C2=O [Compound 8, carminic acid] is ____.
> 20 µM
